# Measurement Target: hACSL5 (Homo sapiens (Human), UniProt Q9ULC5)
# Sequence (Q9ULC5 33-683): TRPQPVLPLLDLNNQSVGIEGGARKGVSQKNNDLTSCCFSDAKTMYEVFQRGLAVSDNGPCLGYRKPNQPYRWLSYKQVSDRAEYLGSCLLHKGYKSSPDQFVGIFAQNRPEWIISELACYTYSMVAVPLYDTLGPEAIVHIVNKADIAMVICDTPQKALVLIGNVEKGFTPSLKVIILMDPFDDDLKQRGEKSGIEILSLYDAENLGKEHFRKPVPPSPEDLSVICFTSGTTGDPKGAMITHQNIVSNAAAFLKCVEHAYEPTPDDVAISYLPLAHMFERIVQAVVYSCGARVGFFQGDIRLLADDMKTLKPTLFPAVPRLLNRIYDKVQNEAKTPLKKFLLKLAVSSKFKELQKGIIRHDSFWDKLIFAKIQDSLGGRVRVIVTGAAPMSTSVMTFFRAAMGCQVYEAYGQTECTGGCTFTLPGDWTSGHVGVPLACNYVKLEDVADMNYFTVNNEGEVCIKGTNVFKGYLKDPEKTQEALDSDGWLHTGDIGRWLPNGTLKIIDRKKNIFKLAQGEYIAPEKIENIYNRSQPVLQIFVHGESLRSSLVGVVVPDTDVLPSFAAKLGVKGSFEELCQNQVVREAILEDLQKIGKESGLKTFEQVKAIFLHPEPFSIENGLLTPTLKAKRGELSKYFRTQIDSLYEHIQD
# Method Description: Human ACSL5 coupled enzyme Amplex Red assay
# Type: biochemical
# Measurement Conditions: read-out: hACSL5 IC50
Reported Metric: IC50

Sample answers from the record:
- Compound: "C[C@@H](Oc1ccc(C(=O)NS(=O)(=O)c2ccc(OCCN(C)C)cc2)cc1C(F)(F)F)c1ccc(Oc2ccccn2)cn1"
  Measurement Target: "hACSL5 (Homo sapiens (Human), UniProt Q9ULC5)"
  Reported Metric: "IC50"
  Val: "< 100 nM"
- Compound: "CC[C@@H](Oc1ccc(C(=O)NS(=O)(=O)c2ccc(OCCn3ccnc3)cc2)c(F)c1F)c1ccc(OCCOC)cn1"
  Measurement Target: "hACSL5 (Homo sapiens (Human), UniProt Q9ULC5)"
  Reported Metric: "IC50"
  Val: "< 100 nM"
- Compound: "CC(Oc1ccc(C(=O)NS(=O)(=O)c2ccc(CN)cc2)cc1C(F)(F)F)c1cccc(OCC2CCCC2)c1 (stereo not drawn)"
  Measurement Target: "hACSL5 (Homo sapiens (Human), UniProt Q9ULC5)"
  Reported Metric: "IC50"
  Val: "> 500 nM"
- Compound: "CC[C@@H](Oc1ccc(C(=O)NS(=O)(=O)c2ccc(OC3CCN(C)CC3)nc2)c(F)c1F)c1ccc(OCC2CC2)cn1"
  Measurement Target: "hACSL5 (Homo sapiens (Human), UniProt Q9ULC5)"
  Reported Metric: "IC50"
  Val: "< 100 nM"

Record `CC[C@@H](Oc1ccc(C(=O)NS(=O)(=O)c2ccc(OC3CCN(C(C)C)CC3)cc2)c(F)c1F)c1ccc(OCC2CC2)cn1` . Reported IC50: < 100 nM

Record CC[C@@H](Oc1ccc(C(=O)NS(=O)(=O)N2CC3CC2CC3OCCN2CCCC2)c(F)c1F)c1ccc(OCC2CC2)cn1 (stereo partly drawn) . Reported IC50: < 100 nM

Record `CC[C@@H](Oc1ccc(C(=O)NS(=O)(=O)c2ccc(OCCN3CCCC3)nn2)c(F)c1F)c1ccc(OCC2CC2)cn1` . Reported IC50: < 100 nM

Record `NCCc1ccc(S(=O)(=O)NC(=O)c2ccc(OCc3cccc(Oc4ccccc4)c3)c(F)c2F)cc1` . Reported IC50: 100 to 500 nM

Hey, just so you know, these numbers are from patent US20250275959A1.
